- Tested system: pooled human IgG (human IgG1,2,3 and 4)
In plain terms, low Enzyme activity endpoint: Fc, meaning strictly below 400 ng/µL, gives Yes, and everything else gives No.

{"columns": ["Protein", "Label value"],
 "data": [
  ["PRT-604 (protein) MQITSVWTKGVTPLTPEQFRYNNEDVIHAPYLAHQGWYDITKAFDGKDNLLCGAATAGNMLHWWFDQNKTEIEAYLSKHPEKQKIIFNNQELFDLKAAIDTKDSQTNSQLFNYFRDKAFPNLSARQLGVMPDLVLDMFINGYYLNVFKTQSTDVNRPYQDKDKRGGIFDDVFGKGDQTTLLTARHDLKNKGLNDISTIIKQELTEGRALALSHTYANVSISHVINLWGADFNAEGNLEAIYVTDSDANASIGMKKYFVGINAHGHVAISAKKIEGENIGAQVLGLFTLSSGKDIWQKLSLEHHHHHH", "Yes"],
  ["PRT-638 (protein) MQITSVWTKGVTPLTPEQFRYNNEDVIHAPYLAHQGWYDITKLNDTGDGLLCGAATAGNMLHWWFDQNKTEIEAYLSKHPEKQKIIFNNQELFDLKAAIDTKDSQTNSQLFNYFRDKAFPNLSARQKGVMPDLVLDMFINGYYLNVFKTQSTDVNRPYQDKDKRGGIFDAVFTRGDQTTLLTARHDLKNKGLNDISTIIKQELTEGRALALSHTYANVSISHVINLWGADFNAEGNLEAIYVTDSNAGNGIGMKKYFVGINAHGHVAISAKKIEGENIGAQVLGLFTLSSGKDIWQKLSLEHHHHHH", "Yes"],
  ["PRT-613 (protein) MQITTVWTKGVTPLTPEQFRYNNEDVIHAPYLAHQGWYDITKAFDGKDNLLCGAATAGNMLHWWFDQNKTEIEAYLSKHPEKQKIIFNNQELFDLKAAISTKDSQTNSQLFNYFRDKAFPNLSARQLGVMPDLVLDMFINGYYLNVFKTQSTDVNRPYQDKDKRGGIFDDVFTRGDQTTLLTARHDLKNGGLNDISTIIKQELTNGRALALSHTYANVSISHVINLWGADFNAEGNLEAIYVTDSDANARIGMKKYGVGINAHGHVAISAKKIEGENIGAQVLGLFTLSSGKDIWQKLSLEHHHHHH", "No"],
  ["PRT-616 (protein) MQITTVWTKGVTPLTPEQFRYNNEDVIHAPYLPHQGWYDITKAFDGKDNLLCGAATAGNMLHWWFDQNKTEIEAYLSKYPEKQKIIFNNQELFDLRAAINTKDSQTNSQLFNYFRDKAFPNLSARQLGVMPDLVLDMFINGYYLNVFKTQSTDVNRPYQDRDKRGGIFDAVFNRGDQTTLLTARHDLKNKGLNDISTIIKQELSSGRALALSHTYANVSISHVINLWGADFNAEGNLEAIYVTDSDANASIGMKKYYVGINAHGHVAISAKKIEGENIGAQVLGLFTLSSGKDIWQKLSLEHHHHHH", "No"],
  ["PRT-664 (protein) MQITSVWTKGVTPLTPEQFRYNNEDVIHAPYLPHQGWYDITKAFDGKDNLLCGAATAGNMLHWWFDQNKTEIEAYLSKHPEKQKIIFNNQELFDLRAAINTKDSQTNSALFNYFRDKAFPNLSARQLGVMPDLVLDMFINGYYLNVFKTQSTDVNRPYQDKDKRGGIFDAVFTRGDQTTLLTARHDLKNKGLNDISTLIKQELTEGKALALSHTYANVSISHVINLWGADFNAEGNLEAIYVTDSDSDASIGMKKYYVGINASGHVAISAKKIEGENIGAQVLGLFTLSSGKDIWQKLSLEHHHHHH", "No"],
  ["PRT-652 (protein) MQITSVWTKGVTPLTPEQFRYNNEDVIHAPYLAHQGWYDITKAFDGKDNLLCGAATAGNMLHWWFDQNKTEIEAYLSKHPEKQKIIFNNQELFDLKAAIDTKDSQTNSQLFNYFRDKAFPNLSARQLGVMPDLVLDMFINGYYLNVFKTQSTDVNRPYQDKDKRGGIFDAVFTRGDQTTLLTARHDLKNKGLNDISTIIKQELTEGRALALSHGTANGGYSHVINLWGADFNAEGNLEAIYVTDSDANASIGMKKYFVGINAHGHVAISAKKIEGENKGAQVLGLFTLSSGKDIWQKLSLEHHHHHH", "Yes"],
  ["PRT-631 (protein) MQITSVWTKGVTPLTPEQFRYNNEDVIHAPYLAHQGWYDITKAFDGKDNLLCGAATAGNMLHWWFDQNKEEIDNYLKKYPDKQKIIFNNQELFDLKAAIDTKDSQTNSQLFNYFRDKAFPNLSARQLGVMPDLVLDMFINGYYLNVFKTQSTDVNRPYQDKDKRGGIFDAVFTRGDQTTLLTARHDLKNKGLNDISTIIKQELTEGRALALSHTYANVSISHVINLWGADFNAEGNLEAIYVTDSDANASIGMKKYFVGINAHGHVAISAKKIEGENIGAQVLGLFTLSSGKEIWKKLSLEHHHHHH", "No"]
]}
